Reported values of Ki for individual entries
# Measured target: Angiotensin II receptor (AT-1) type-1 (Rattus norvegicus, UniProt P29089+P25095)
# Sequence (P29089 whole entry): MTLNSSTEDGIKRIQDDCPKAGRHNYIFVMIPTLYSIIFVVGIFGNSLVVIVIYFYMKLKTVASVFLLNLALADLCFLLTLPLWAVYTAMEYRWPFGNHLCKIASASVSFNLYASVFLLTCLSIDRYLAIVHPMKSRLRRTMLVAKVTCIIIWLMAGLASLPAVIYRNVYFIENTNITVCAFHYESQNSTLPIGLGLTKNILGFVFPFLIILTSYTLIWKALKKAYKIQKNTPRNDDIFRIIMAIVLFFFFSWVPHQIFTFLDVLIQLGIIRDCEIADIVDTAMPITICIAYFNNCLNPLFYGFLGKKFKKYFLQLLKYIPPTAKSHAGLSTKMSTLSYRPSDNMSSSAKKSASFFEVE
# Sequence (P25095 whole entry): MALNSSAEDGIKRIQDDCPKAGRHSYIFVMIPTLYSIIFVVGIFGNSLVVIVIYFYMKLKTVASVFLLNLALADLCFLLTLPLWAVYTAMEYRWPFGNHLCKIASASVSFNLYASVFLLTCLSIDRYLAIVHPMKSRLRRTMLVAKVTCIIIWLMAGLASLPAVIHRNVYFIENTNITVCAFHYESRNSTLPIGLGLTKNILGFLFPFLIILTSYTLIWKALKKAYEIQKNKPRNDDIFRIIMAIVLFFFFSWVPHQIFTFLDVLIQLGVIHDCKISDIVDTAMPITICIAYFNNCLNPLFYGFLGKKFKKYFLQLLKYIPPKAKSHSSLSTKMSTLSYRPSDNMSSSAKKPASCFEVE
# Assay summary: Displacement of [3H]angiotensin II from Angiotensin II type 1 receptor in rat adrenal cortical membrane
# Assay type: cell membranes
Just the number in nM, nothing appended.

{"columns": ["Smiles input", "Measured target", "Ki [nM]"],
 "data": [
  ["CCCCc1ncn(Cc2cccs2)c(=O)c1Cc1ccc(-c2ccccc2C(=O)O)cc1", "Angiotensin II receptor (AT-1) type-1 (Rattus norvegicus, UniProt P29089+P25095)", 60],
  ["CCCCc1nc(C)n(Cc2occc2C(=O)O)c(=O)c1Cc1ccc(-c2ccccc2-c2nn[nH]n2)cc1", "Angiotensin II receptor (AT-1) type-1 (Rattus norvegicus, UniProt P29089+P25095)", 16],
  ["CCCCc1nc(C)n(Cc2sccc2C(=O)O)c(=O)c1Cc1ccc(-c2ccccc2C(=O)O)cc1", "Angiotensin II receptor (AT-1) type-1 (Rattus norvegicus, UniProt P29089+P25095)", 181]
]}

For the next question, use this molecule.
Query: # input molecule: CCCCc1nc(C)n(Cc2ccccc2C(=O)O)c(=O)c1Cc1ccc(-c2ccccc2C(=O)O)cc1 ; wanted: its Ki
Reply: 401

---

# Measured target: Angiotensin II receptor (Rattus norvegicus) (UniProt P29089+P25095+P35351)
# Assay summary: Effect on pressure response to angiotensin II receptor (AII) after (i.v.) administration of 1 mg/kg in anesthetized, ganglion blocked, A II- infused rat was determined in vivo
# Type: functional, organism-based
# Parameters: dose 1 mg/kg
# Study conditions: at 1 mg/kg
Readout label: inhibition (%)
Output spec: scalar in %, unitless text.

Here's what some known entries look like.
{"columns": ["Smiles input", "inhibition (%)"],
 "data": [
  ["CCCCc1nc(Cl)c(CO)n1Cc1ccc(-c2ccccc2C(=O)O)cc1", 48],
  ["CCCCc1nc(C)cc(=O)n1Cc1ccc(-c2ccccc2C(=O)O)cc1", 34],
  ["CCCCc1nc(C)nc(O)c1Cc1ccc(-c2ccccc2C(=O)O)cc1", 53],
  ["CCCCc1nc(C)n(Cc2sccc2C(=O)O)c(=O)c1Cc1ccc(-c2ccccc2C(=O)O)cc1", 33],
  ["CCCCc1ncnc(O)c1Cc1ccc(-c2ccccc2C(=O)O)cc1", 50],
  ["CCCCc1nccc(=O)n1Cc1ccc(-c2ccccc2C(=O)O)cc1", 42]
]}

Query: inhibition for CCCCc1ncn(Cc2ccccc2)c(=O)c1Cc1ccc(-c2ccccc2C(=O)O)cc1 ?
Reply: 39

Query: Entry CCCCc1ncn(Cc2ccccc2C(=O)O)c(=O)c1Cc1ccc(-c2ccccc2C(=O)O)cc1 : reported inhibition = ?
Reply: 43

Query: For CCCCc1ncn(Cc2ccc(C(=O)O)cc2)c(=O)c1Cc1ccc(-c2ccccc2C(=O)O)cc1 , what is its reported inhibition?
Reply: 46
